The entries below come with measured pIC50 values attached.
system: NCI-H929 cells; test: NCI-H929 cell proliferation assay (CellTiter-Glo); format: cell-based; settings: 72 h compound treatment
pIC50: −log10 of the molar value.

Example cases with answers are listed next.
{"Compound": "CN1Cc2cc(n(C)n2)CCc2cc3c(c(c2)OCCCc2c(C(=O)O)n(C)c4c(c(Cl)ccc24)-c2c(nn4c2CCCC4)C1)NCCC3 (atropisomer, axis not shown; (Ra)) [Example 6A]", "Attribute Measured": "pIC50", "Result": "≥ 7.00"}
{"Compound": "Cn1nc2cc1CSc1cc3c(c(c1)OCCCc1c(C(=O)O)n(C)c4c(c(Cl)ccc14)-c1c(nn4c1CCCC4)CNC2)NCCC3 (atropisomer, axis not shown; (Ra)) [Example 12A]", "Attribute Measured": "pIC50", "Result": "≤ 6.00"}

Proceed to the following item.
Could you share what pIC50 was measured for CCn1nc(C)c2c1CSCc1cc(n(C)n1)CSc1cc3c(c(c1)OCCCc1c(C(=O)O)n(C)c4c-2c(Cl)ccc14)NCCC3 (atropisomer, axis not shown; (Ra)) [Example 14A] , tested on NCI-H929 cells?
≥ 7.00

----------
molecular target: Mcl-1 (Homo sapiens, UniProt Q07820)
Sequence (Q07820 whole entry): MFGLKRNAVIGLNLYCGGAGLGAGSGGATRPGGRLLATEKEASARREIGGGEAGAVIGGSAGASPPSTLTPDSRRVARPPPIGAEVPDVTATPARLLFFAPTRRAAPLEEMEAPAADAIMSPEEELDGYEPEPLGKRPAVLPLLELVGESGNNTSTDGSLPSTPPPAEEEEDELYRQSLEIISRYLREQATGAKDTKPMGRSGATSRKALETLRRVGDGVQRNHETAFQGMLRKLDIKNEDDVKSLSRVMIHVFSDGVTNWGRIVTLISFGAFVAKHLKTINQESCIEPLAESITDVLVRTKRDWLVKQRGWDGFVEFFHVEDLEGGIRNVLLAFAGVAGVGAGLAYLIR
Attribute Measured: IC50

Missing value: IC50, Mcl-1 (Homo sapiens, UniProt Q07820), entry Cn1nc2cc1CSc1cc3c(c(c1)OCCCc1c(C(=O)O)n(C)c4c(c(Cl)ccc14)-c1c(nn4c1CCCC4)CSC2)NCCC3 (single isomer, unassigned) [Example 2A] . Fill in?
< 10 nM

----------
A collection of molecules and their measured pIC50
system: NCI-H929 cells; assay: NCI-H929 cell proliferation assay (CellTiter-Glo); format: cell-based; details: 72 h compound treatment
pIC50: −log10 of the molar value.

Look over these answered cases.
{"Molecule": "CN1Cc2cc(n(C)n2)CSc2cc3c(c(c2)OCCCc2c(C(=O)O)n(C)c4c(c(Cl)ccc24)-c2c(nn4c2CCCC4)C1)NCCC3 (atropisomer, axis not shown; (Ra)) [Example 4A]", "Tgt": "NCI-H929 cells", "Result": "≤ 6.00"}
{"Molecule": "CN1Cc2cc(n(C)n2)CSc2cc3c(c(c2)OCCCc2c(C(=O)O)n(C)c4c(c(Cl)ccc24)-c2c(nn4c2CCCC4)C1)NCCC3 (atropisomer, axis not shown; (Sa)) [Example 4B]", "Tgt": "NCI-H929 cells", "Result": "≥ 7.00"}
{"Molecule": "CN1Cc2cc(n(C)n2)CSc2cc3c(c(c2)OCCCc2c(C(=O)O)n(C)c4c(c(Cl)ccc24)-c2c(nn4c2CCC4)C1)NCCC3 (atropisomer, axis not shown; (Ra)) [Example 3A]", "Tgt": "NCI-H929 cells", "Result": "≤ 6.00"}
{"Molecule": "CN1Cc2cc(n(C)n2)CSc2cc3c(c(c2)OCCCc2c(C(=O)O)n(C)c4c(c(Cl)ccc24)-c2c(nn4c2CCC4)C1)NCCC3 (atropisomer, axis not shown; (Sa)) [Example 3B]", "Tgt": "NCI-H929 cells", "Result": "≥ 7.00"}

For the molecule Cn1nc2cc1CSc1cc3c(c(c1)OCCCc1c(C(=O)O)n(C)c4c(c(Cl)ccc14)-c1c(nn4c1CCCC4)CNC2)NCCC3 (atropisomer, axis not shown) [Example 12B] , what pIC50 is on record?
6.00 to 7.00

----------
Below is a list of entries, each paired with its recorded pIC50 value.
Test system: NCI-H929 cells
Test: NCI-H929 cell proliferation assay (CellTiter-Glo)
Type: cell-based
Settings: 72 h compound treatment
Experimental: NCI-H929 Cell Proliferation Assay Cell proliferation was measured using the CellTiter-Glo® Luminescent Cell Viability Assay. […] Each compound evaluated was prepared as a DMSO stock solution (10 mM). […] Luminescence was recorded using an Envision plate reader according to CellTiter-Glo protocol. IC50 of each compound was calculated using GraphPad Prism by nonlinear regression analysis.
pIC50: −log10 of the molar value.

{"Molecule": "Cc1nn(C23CC(C2)C3)c2c1-c1c(Cl)ccc3c(c(C(=O)O)n(C)c13)CCCOc1cc(cc3c1NCCC3)SCc1cc(nn1C)CSC2 (atropisomer, axis not shown; (Ra)) [Example 9A]", "Attribute Measured": "pIC50", "Result": "≤ 6.00"}
{"Molecule": "Cn1nc2cc1CSc1cc3c(c(c1)OCCCc1c(C(=O)O)n(C)c4c(c(F)ccc14)-c1c(nn4c1CCCC4)CSC2)NCCC3 (atropisomer, axis not shown; (Sa)) [Example 8B]", "Attribute Measured": "pIC50", "Result": "6.00 to 7.00"}
{"Molecule": "Cc1nn(C23CC(C2)C3)c2c1-c1c(F)ccc3c(c(C(=O)O)n(C)c13)CCCOc1cc(cc3c1NCCC3)SCc1cc(nn1C)CSC2 (atropisomer, axis not shown; (Ra)) [Example 10A]", "Attribute Measured": "pIC50", "Result": "≤ 6.00"}

Recall the recorded pIC50 for Cc1nn(C23CC(C2)C3)c2c1-c1c(F)ccc3c(c(C(=O)O)n(C)c13)CCCOc1cc(cc3c1NCCC3)SCc1cc(nn1C)CSC2 (atropisomer, axis not shown; (Sa)) [Example 10B] with NCI-H929 cells and state it.
≥ 7.00

Provide the documented pIC50 with NCI-H929 cells as the system for CN1Cc2cc(n(C)n2)CCc2cc3c(c(c2)OCCCc2c(C(=O)O)n(C)c4c(c(Cl)ccc24)-c2c(nn4c2CCC4)C1)NCCC3 (atropisomer, axis not shown; (Sa)) [Example 5B]
≤ 6.00

----------
system: NCI-H929 cells; test: NCI-H929 cell proliferation assay (CellTiter-Glo); type: cell-based; settings: 72 h compound treatment
Attribute Measured: IC50

{"Molecule": "Cn1nc2cc1CSc1cc3c(c(c1)OCCCc1c(C(=O)O)n(C)c4c(c(F)ccc14)-c1c(nn4c1CCCC4)CSC2)NCCC3 (atropisomer, axis not shown; (Ra)) [Example 8A]", "IC50": "≥ 1 µM"}
{"Molecule": "CN1Cc2cc(n(C)n2)CCc2cc3c(c(c2)OCCCc2c(C(=O)O)n(C)c4c(c(Cl)ccc24)-c2c(nn4c2CCC4)C1)NCCC3 (atropisomer, axis not shown; (Ra)) [Example 5A]", "IC50": "≤ 0.1 µM"}
{"Molecule": "CN1Cc2cc(n(C)n2)CCc2cc3c(c(c2)OCCCc2c(C(=O)O)n(C)c4c(c(Cl)ccc24)-c2c(nn4c2CCCC4)C1)NCCC3 (atropisomer, axis not shown; (Sa)) [Example 6B]", "IC50": "≥ 1 µM"}
{"Molecule": "CCn1nc(C)c2c1CSCc1cc(n(C)n1)CSc1cc3c(c(c1)OCCCc1c(C(=O)O)n(C)c4c-2c(Cl)ccc14)NCCC3 (atropisomer, axis not shown; (Sa)) [Example 14B]", "IC50": "≥ 1 µM"}

Then this molecule:
If you can, please state the reported IC50 value of Cc1nn(C23CC(C2)C3)c2c1-c1c(Cl)ccc3c(c(C(=O)O)n(C)c13)CCCOc1cc(cc3c1NCCC3)SCc1cc(nn1C)CSC2 (atropisomer, axis not shown; (Sa)) [Example 9B] .
≤ 0.1 µM

----------
tested on: NCI-H929 cells; assay: NCI-H929 cell proliferation assay (CellTiter-Glo); assay type: cell-based; settings: Homo sapiens, NCI-H929, 72 h, 72 h compound treatment
Attribute Measured: IC50

Consider the compound shown here: CN1CCCc2cc3cc(c21)OCCCc1c(C(=O)O)n(C)c2c(c(Cl)ccc12)-c1c(nn2c1CCC2)CSCc1cc(n(C)n1)CS3 (atropisomer, axis not shown; (Ra)) [Example 13A] What is its recorded IC50?
≥ 1000 nM

I would be grateful if you could share the reported IC50 for CO[C@H]1/C=C/C[C@H](C)[C@@H](C)S(=O)(=O)NC(=O)c2ccc3c(c2)N(C[C@@H]2CC[C@H]21)C[C@@]1(CCCc2cc(Cl)ccc21)CO3 [AMG176, reference compound] .
100 to 1000 nM

Which IC50 is reported for this compound? Cn1nc2cc1CSc1cc3c(c(c1)OCCCc1c(C(=O)O)n(C)c4c(c(Cl)ccc14)-c1c(nn4c1CCC4)CSC2)NCCC3 (atropisomer, axis not shown; (Sa)) [Example 1B]
≥ 1000 nM

----------
tested on: NCI-H929 cells; assay: NCI-H929 cell proliferation assay (CellTiter-Glo); format: cell-based; conditions: Homo sapiens, NCI-H929, 72 h, 72 h compound treatment
// reported IC50 per item

{"Molecule": "Cc1c2c(nn1C)CSCc1cc(n(C)n1)CSc1cc(c3ccccc3c1)OCCCc1c(C(=O)O)n(C)c3c-2c(Cl)ccc13 [AZD5991, reference compound]", "Tgt": "NCI-H929 cells", "IC50": "≤ 100 nM"}
{"Molecule": "Cn1nc2cc1CSc1cc3c(c(c1)OCCCc1c(C(=O)O)n(C)c4c(c(F)ccc14)-c1c(nn4c1CCC4)CSC2)NCCC3 (atropisomer, axis not shown; (Ra))", "Tgt": "NCI-H929 cells", "IC50": "100 to 1000 nM"}
{"Molecule": "Cn1nc2cc1CSc1cc3c(c(c1)OCCCc1c(C(=O)O)n(C)c4c(c(Cl)ccc14)-c1c(nn4c1CCCC4)CSC2)NCCC3 (single isomer, unassigned) [Example 2A]", "Tgt": "NCI-H929 cells", "IC50": "≤ 100 nM"}
{"Molecule": "Cn1nc2cc1CSc1cc3c(c(c1)OCCCc1c(C(=O)O)n(C)c4c(c(Cl)ccc14)-c1c(nn4c1CCCC4)CSC2)NCCC3 (atropisomer, axis not shown; (Sa)) [Example 2B]", "Tgt": "NCI-H929 cells", "IC50": "≥ 1000 nM"}

Give the reported IC50 for Cn1nc2cc1CSc1cc3c(c(c1)OCCCc1c(C(=O)O)n(C)c4c(c(Cl)ccc14)-c1c(nn4c1CCC4)CSC2)NCCC3 (single isomer, unassigned) [Example 1A] (system: NCI-H929 cells).
≤ 100 nM

The measured values listed here are drawn from patent US20230192720A1.
